target: dopamine D-2 receptor (Rattus norvegicus); experiment: biochemical; format: binding; settings: rat caudate, [125I]-p-aminophenylethyl spiroperidol; read-out: D-2 Ki
Sequence (P61169 whole entry): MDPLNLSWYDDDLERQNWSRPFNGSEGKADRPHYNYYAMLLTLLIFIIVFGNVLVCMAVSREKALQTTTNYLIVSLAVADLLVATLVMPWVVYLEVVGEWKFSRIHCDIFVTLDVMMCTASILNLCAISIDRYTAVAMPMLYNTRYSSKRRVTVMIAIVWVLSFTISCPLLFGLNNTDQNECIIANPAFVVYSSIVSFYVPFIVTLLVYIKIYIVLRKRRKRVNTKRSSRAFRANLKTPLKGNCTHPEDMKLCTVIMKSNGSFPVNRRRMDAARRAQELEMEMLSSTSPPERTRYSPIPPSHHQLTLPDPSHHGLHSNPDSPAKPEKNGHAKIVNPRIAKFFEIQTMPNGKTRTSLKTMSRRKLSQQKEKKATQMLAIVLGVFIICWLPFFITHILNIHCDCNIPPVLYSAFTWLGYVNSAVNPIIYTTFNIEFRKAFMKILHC
measure-name: Ki (µM)

Below, 3 compounds whose answers are already recorded.
1. NC[C@@H]1O[C@H](COc2ccc(Br)cc2)Cc2c1ccc(O)c2O (relative stereo) [Example 58]
1.2
2. NC[C@@H]1O[C@H](C23CC4CC(CC(C4)C2)C3)Cc2c1cc(F)c(O)c2O [Example 103]
2
3. Oc1ccc2c(c1O)CC1(CCCCCCCCC1)C1=C2CNCC1 [Example 240]
5.2

[I] Oc1ccc2c(c1O)C[C@@H](c1ccccc1)C1=C2CNCC1 [Example 201]
[II] C=CCNC[C@H]1O[C@@H](c2ccccc2)Cc2c1ccc(O)c2O (stereo in doubt) [Example 126]
*Q* Which of the two gives a bigger number for Ki: I or II ? Indicate your choice by writing its label.
*A* II
(II: 6.6 µM, I: 1.5 µM)
